Here's a roundup of IC50 values tested on ROCK2 (Homo sapiens, UniProt O75116), taken from various published works.

Reference set, count: 3
O=C(NCc1ccccc1)N1CCc2cc(-c3ccncc3)ccc21
50 to 500 nM
CCc1nc(N2CC3(CCN(CCC(F)(F)F)CC3)N(Cc3cc(F)cc(OC)c3)C2=O)ccc1-c1cn[nH]c1
3 to 30 nM
COc1cccc(CN2C(=O)N(c3ccc(-c4cn[nH]c4)cc3)CC23CCN(C(N)=O)CC3)c1
< 3 nM

# evaluate next
Response field IC50 (ROCK2 (Homo sapiens, UniProt O75116)) for item COc1cc(C(C)n2ccn(-c3ccc(-c4cn[nH]c4)cc3)c2=O)ccc1F (single isomer, unassigned) : 2.1 to 20 nM

====

Here's a roundup of IC50 values tested on ROCK2 (Homo sapiens), taken from various published works.

Reference set, count: 2
Cc1sc2cc(C(N)=O)c(O[C@H]3CC4(C[C@H](NC(=O)c5nnc(NCC(C)C)s5)C4)C3)nc2c1C (stereo partly drawn)
162 nM
COc1cccc(CN2C(=O)N(c3ccc(-c4cn[nH]c4)cc3)CC23CCN(C(=O)OC(C)(C)C)CC3)c1
3 to 30 nM

Response field IC50 (ROCK2 (Homo sapiens)) for item Cn1cc(C(=O)Nc2cccc(-n3nc(Nc4ccc5[nH]ncc5c4Cl)c4cnccc43)c2)cn1 : < 300 nM

====

Here's a roundup of pIC50 values tested on ROCK2 (Homo sapiens, UniProt O75116), taken from various published works.
Keep it numeric: pIC50 is minus log10 of the concentration in mol/L.

Reference set, count: 5
NC(=O)c1cccnc1Oc1ccc(CC(=O)Nc2nc3ccccc3s2)cc1F
7.51
COc1cccc(-c2nc(NC(=O)Cc3ccc(Oc4ncccc4C(N)=O)c(F)c3)sc2C)n1
7.16
N#Cc1ccc(C(=O)Nc2ccc3c(c2)OCc2cnccc2-3)cc1
5.59
CC(C)(C)C[C@@H]1NC(=O)N([C@H]2C[C@@]3(C[C@H](Oc4ncccc4C(N)=O)C3)C2)C1=O (stereo partly shown)
8.00
NC[C@@H](C(=O)Nc1ccc2cnsc2c1)c1ccc(CO[N+](=O)[O-])cc1
8.75

Response field pIC50 (ROCK2 (Homo sapiens, UniProt O75116)) for item CN(C(=O)c1cc2ccc(-c3nccc(Nc4ccc(-c5cn[nH]c5)cc4)n3)cc2[nH]1)C(CO)CO : 6.97

====

Here's a roundup of IC50 values tested on ROCK2 (Homo sapiens), taken from various published works.

CN(C)C[C@@H](NC(=O)c1ccc2cnccc2c1)c1ccccc1
< 100 nM
COc1ccc2c(c1)CN(c1nc(C)c(C)c(Nc3ccc4[nH]ncc4c3)n1)C2
> 10 nM

# evaluate next
Response field IC50 (ROCK2 (Homo sapiens)) for item O=C(c1ccc2c(c1)CCN(c1nccc(Nc3ccc(-c4cn[nH]c4)cc3)n1)C2)N1CC(F)(F)C1 : 500 to 4500 nM

====

Here's a roundup of IC50 values tested on ROCK2 (Homo sapiens), taken from various published works.

Reference set, count: 2
Cn1ccc(-c2ccc3c(C(=O)NC4CC5(C4)CC(c4n[nH]c(=O)c6ccccc46)C5)nn(CC(C)(C)O)c3c2)n1 (centres unmarked)
2.01 to 5 nM
Cn1nccc1-c1ccc2c(C(=O)NC3CC4(C3)CC(c3n[nH]c(=O)c5ccccc35)C4)nn(CC(C)(C)O)c2c1 (centres unmarked)
2.01 to 5 nM

Response field IC50 (ROCK2 (Homo sapiens)) for item O=C1N(Cc2c(F)cccc2F)CCN1c1ccc2c(n1)OCc1n[nH]cc1-2 : 500 to 2000 nM

Response field IC50 (ROCK2 (Homo sapiens)) for item CCc1cc(N2CCN(C(CO)c3cccc(OC)c3)C2=O)ccc1-c1cn[nH]c1 (single isomer, unassigned) : 2.1 to 20 nM

Response field IC50 (ROCK2 (Homo sapiens)) for item COc1cc(F)cc(CNC(=O)N2CCc3cc(-c4cn[nH]c4)ccc3C2)c1 : 50 to 500 nM

Response field IC50 (ROCK2 (Homo sapiens)) for item COc1cccc(CN2CCN(c3ccc(-c4cn[nH]c4)cn3)C2=O)c1 : 2.1 to 20 nM
